System: SF-268 CNS
Test: NCI-60 one-dose screen, 48 h (100 = growth as untreated, 0 = no growth, -100 = all killed)
Conditions: 10 µM unless noted
Method: Cells are grown in 96 well plates and exposed to the test compound for 48 hours. Compounds are tested at a single concentration, which is 10^-5 M for most compounds. The reported endpoint is percent growth (GI% or GIPRCNT), where numbers from 0 - 100% represent growth inhibition, and numbers from -100% - 0 represent cell death. For example, a value of 40 represents 60% growth inhibition. A value of 0 means no net growth occurred over the course of the experiment. […]
About 83,000 compounds went through this panel and 20% of them were active in at least one assay; those are over-represented in the sample as a whole. The source made the active and inactive calls. Rule for the calls: active = growth percent below 10; inactive = the rest.
Recorded Metric: growth

For orientation, consider the following solved cases.
[
  {
    "Compound": "N=C(N)c1ccc(-c2ccc(-c3ccccc3)s2)nc1",
    "Recorded Metric": "growth",
    "Measured Value": "93.8% (inactive)"
  },
  {
    "Compound": "COCCn1cc(-c2nc(-c3cc4cccnc4n3C)cs2)c2cc(OC)ccc21",
    "Recorded Metric": "growth",
    "Measured Value": "71.3% (inactive)"
  },
  {
    "Compound": "Cc1cc2c(c(C)n1)CN(C(=O)Nc1nc(-c3cncs3)ccc1N)C2",
    "Recorded Metric": "growth",
    "Measured Value": "101% (inactive)"
  },
  {
    "Compound": "O=C(NS(=O)(=O)c1ccccc1)n1cc(-c2ccncc2)c(-c2cc(O)cc(Cl)c2)n1",
    "Recorded Metric": "growth",
    "Measured Value": "108% (inactive)"
  },
  {
    "Compound": "CCN(CC)CCN1C(=O)c2c(c(C)c3c(oc4cc(OC)ccc43)c2C)C1=O",
    "Recorded Metric": "growth",
    "Measured Value": "89.6% (inactive)"
  },
  {
    "Compound": "CCOC(=O)c1c(C)c2c(n1Cc1ccccc1)CSc1cc(C#N)c(=O)[nH]c1-2",
    "Recorded Metric": "growth",
    "Measured Value": "67.5% [100 µM] (inactive)"
  }
]

input: Give the measured growth for COc1cc(OCc2cccc(-c3ccccc3)c2C)cc(OC)c1CN1CCCCC1C(=O)NCCOCCOCCN (centres undefined)
output: 87% (inactive)

input: Complete the entry with growth for CCCCCC(C)(O)C(C(=O)O)c1ccccc1 (centres undefined)
output: 107% (inactive)

input: Give the measured growth for Cc1ccc(-c2nc(C#N)c(S(=O)(=O)n3nc(C)cc3N)o2)cc1
output: 93.5% (inactive)

input: Please give the documented growth of N#Cc1c(-c2ccc(F)cc2)cc(-c2cccc(Cl)c2)[nH]c1=O
output: 41.9% (inactive)

input: Please list growth recorded for the compound O=C1c2c(c3c4cc(F)ccc4oc3c3[nH]c4ccccc4c23)C(=O)N1O
output: 38.7% (inactive)

====

test system: RXF 393 renal; test: NCI-60 one-dose screen, 48 h; conditions: 10 µM unless noted
Compounds without any hit were thinned out: in the full panel of roughly 83,000, 20% have a hit. The source made the active and inactive calls. The calls were made as follows: active = growth percent below 10; inactive = the rest.
Hi! Could you answer with just one of these? active, inactive

Completed entries (count: 5):
[
  {
    "Compound": "O=[N+]([O-])c1ccc(N/N=C\\c2cc(Cl)ccc2O)nc1",
    "Class": "inactive"
  },
  {
    "Compound": "O=c1c(/C=C/c2c(O)ccc3ccccc23)nnc2sc(-c3cccc([N+](=O)[O-])c3)nn12",
    "Class": "inactive"
  },
  {
    "Compound": "O=c1[nH]c(CN2CCN(c3ccccc3)CC2)nc2c(Br)cc(Br)cc12",
    "Class": "inactive"
  },
  {
    "Compound": "COc1c(O[C@@H]2OC(CO)[C@H](O)[C@H](O)C2O)cc2oc3cc(O)c(CC=C(C)C)c(O)c3c(=O)c2c1CC=C(C)C (some centres undefined)",
    "Class": "inactive"
  },
  {
    "Compound": "C=C(c1ccc(C(=O)O)c(F)c1)c1cc2c(cc1C)C(C)(C)C=CC2(C)C",
    "Class": "inactive"
  }
]

input: Identify the outcome logged in this assay for the compound shown: COC(=O)c1cc(-c2cc(OC)c(OC)c(OC)c2)[nH]c1N/N=C/c1c(Cl)cccc1Cl
output: inactive

input: # fetch the recorded call for NC(=O)[C@@H]1Cc2ccccc2CN1C(=O)c1ccc2c(c1)Cc1ccccc1-2 here
output: inactive

Origin of the recorded values: PubChem BioAssay (NCI)
